Experiment summary: growth inhibition, single agents and combos, LFS_MB_1R, cell-based, cisplatin or BGB combos, synergistic combos for chromothripsis tumors (AID 1671452);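 further: cells exposed for 96 hours before readout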
Settings: LFS_MB_1R medulloblastoma cells, measured here: combination with BGB IC40, at 0.05 µM, stronger effect = higher value
For each entry below, report its inhibition value.
Dear colleague, please return just the value in %, with no unit written.

Ask: Bench note: what inhibition did O=c1c(O)c(-c2ccc(O)c(O)c2)oc2cc(O)cc(O)c12 show?
Reply: 7.65

Ask: Bench note: what inhibition did CN(C)c1ccc(C(=C2C=CC(=[N+](C)C)C=C2)c2ccc(N(C)C)cc2)cc1 show?
Reply: -11

Ask: Bench note: what inhibition did CCn1cc(C(=O)O)c(=O)c2cc3c(cc21)OCO3 show?
Reply: -15.9

Ask: Bench note: what inhibition did Nc1[nH]c(=O)ncc1F show?
Reply: -0.509

Ask: Bench note: what inhibition did NC(=O)NO show?
Reply: -14.3

Ask: Bench note: what inhibition did CC(N)C12CC3CC(CC(C3)C1)C2 (configuration not stated) show?
Reply: -22.2

Ask: Bench note: what inhibition did O=c1oc2c(O)c(O)cc3c(=O)oc4c(O)c(O)cc1c4c23 show?
Reply: -1.97

* * *

Experiment summary: GFP-Q80 aggregate reduction, neuronal-like cells, cell-based, NGF-treated PC12, GFPQ80 (AID 1614);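 further: lower means fewer inclusions and 0 means no inclusions at all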
Settings: PC12 NGF-treated GFP-polyQ80 inclusion reduction
For each entry below, report its inclusion score value.
// print number alone

Ask: Bench note: what inclusion score did CCCCOc1ccc(CC(=O)NO)cc1 show?
Reply: 2

Ask: Bench note: what inclusion score did COc1ccc(CCN(C)CCCC(C#N)(c2ccc(OC)c(OC)c2)C(C)C)cc1OC (stereo unspecified) show?
Reply: 2

Ask: Bench note: what inclusion score did CC(=O)OCC(COC(C)=O)OC(C)=O show?
Reply: 2

Ask: Bench note: what inclusion score did O=c1c(O)c(-c2ccc(O)c(O)c2)oc2cc(O)cc(O)c12 show?
Reply: 1

Ask: Bench note: what inclusion score did C[C@](N)(Cc1ccc(O)c(O)c1)C(=O)O show?
Reply: 2

Ask: Bench note: what inclusion score did CC(=O)OCC1=C(C(=O)O)N2C(=O)[C@@H](NC(=O)Cc3cccs3)[C@H]2SC1 show?
Reply: 2

* * *

Experiment summary: drug combination growth inhibition, ovarian cancer – cell-based, oncology-focused library, rucaparib conditional, profiling panel (AID 1508598)
Settings: patient-derived ovarian cancer cells, CellTiter-Glo viability, 144 h; at 0.0195 µM; OCI-P5x cells; with rucaparib 20 µM; 100% = cells with rucaparib alone
The source made the active and inactive calls.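 The calls were made as follows: active = normalized viability below 100% at a tested concentration; inactive = the rest.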
Permitted responses: active, inactive

Ask: Tell me the recorded outcome of this test for COc1ccccc1OCC(O)CN1CCN(CC(=O)Nc2c(C)cccc2C)CC1 (stereo unspecified) .
Reply: active

Ask: Tell me the recorded outcome of this test for CN(Cc1cnc2nc(N)nc(N)c2n1)c1ccc(C(=O)N[C@@H](CCC(=O)O)C(=O)O)cc1 .
Reply: inactive

Ask: Tell me the recorded outcome of this test for Cn1nnc2c(C(N)=O)ncn2c1=O .
Reply: inactive

Ask: Tell me the recorded outcome of this test for CC(C)(C#N)c1cc(Cn2cncn2)cc(C(C)(C)C#N)c1 .
Reply: inactive

Ask: Tell me the recorded outcome of this test for N#Cc1ccc(C(c2ccc(C#N)cc2)n2cncn2)cc1 .
Reply: inactive

Ask: Tell me the recorded outcome of this test for Cc1nc(-c2ccc(OCC(C)C)c(C#N)c2)sc1C(=O)O .
Reply: inactive

* * *

Experiment summary: blockers of cytochrome c efflux from mitochondria – biochemical, purified mitochondria (AID 1603);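 further: mouse liver mitochondria challenged with calcium chloride; signal normalized to the plate average as 100%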
Settings: stronger effect = lower value
Parameter measured: cytochrome c release ratio
// print number alone

Ask: Bench note: what cytochrome c release ratio did CO[C@@H]1[C@@H](OC(N)=O)[C@@H](O)[C@H](Oc2ccc3c(O)c(NC(=O)c4ccc(O)c(CC=C(C)C)c4)c(=O)oc3c2C)OC1(C)C show?
Reply: 0.96

Ask: Bench note: what cytochrome c release ratio did S=P(N1CC1)(N1CC1)N1CC1 show?
Reply: 0.82

Ask: Bench note: what cytochrome c release ratio did C=CCc1ccc(O)c(OC)c1 show?
Reply: 1.29

Ask: Bench note: what cytochrome c release ratio did NC(=O)NC(=O)Cc1ccccc1 show?
Reply: 1.02

Ask: Bench note: what cytochrome c release ratio did Cc1cc(=O)n(-c2ccccc2)n1C show?
Reply: 1.13

Ask: Bench note: what cytochrome c release ratio did CCCOc1ccc2nc(NC(=O)OC)[nH]c2c1 show?
Reply: 0.9

* * *

Experiment summary: drug combination growth inhibition, ovarian cancer – cell-based, oncology-focused library, rucaparib conditional, profiling panel (AID 1508598)
Settings: patient-derived ovarian cancer cells, CellTiter-Glo viability, 144 h; at 0.0195 µM; OCI-C5x cells; with rucaparib 10 µM; stronger effect = lower value; 100% = cells with rucaparib alone
Parameter measured: viability (%)
Dear colleague, please return just the value in %, with no unit written.

Ask: Bench note: what viability did COc1ccccc1OCC(O)CN1CCN(CC(=O)Nc2c(C)cccc2C)CC1 (stereo not given) show?
Reply: 106

Ask: Bench note: what viability did COc1cc2c(Nc3ccc(Br)cc3F)ncnc2cc1OCC1CCN(C)CC1 show?
Reply: 110

Ask: Bench note: what viability did CC(C)(C#N)c1cc(Cn2cncn2)cc(C(C)(C)C#N)c1 show?
Reply: 113

Ask: Bench note: what viability did CCC(C)n1ncn(-c2ccc(N3CCN(c4ccc(OC[C@H]5CO[C@](Cn6cncn6)(c6ccc(Cl)cc6Cl)O5)cc4)CC3)cc2)c1=O (stereo not given in full) show?
Reply: 127

Ask: Bench note: what viability did CCc1c2c(nc3ccc(OC(=O)N4CCC(N5CCCCC5)CC4)cc13)-c1cc3c(c(=O)n1C2)COC(=O)[C@]3(O)CC show?
Reply: 115

Ask: Bench note: what viability did Cc1cc2c(C(C)C)c(O)c(O)c(C=O)c2c(O)c1-c1c(C)cc2c(C(C)C)c(O)c(O)c(C=O)c2c1O show?
Reply: 113

Ask: Bench note: what viability did O=NN(CCCl)C(=O)NC1CCCCC1 show?
Reply: 121

Ask: Bench note: what viability did CC(c1cc2ccccc2s1)N(O)C(N)=O (stereo not given) show?
Reply: 119

Ask: Bench note: what viability did COC(=O)Nc1nc2ccc(C(=O)c3cccs3)cc2[nH]1 show?
Reply: 96.1

Ask: Bench note: what viability did O=c1c(O)c(-c2ccc(O)c(O)c2)oc2cc(O)cc(O)c12 show?
Reply: 127

* * *

For each entry below, report its inhibition value.
System name: L-lactate dehydrogenase (Plasmodium falciparum (isolate CDC / Honduras))
Experiment summary: PfLDH activity inhibition – cell lysate, 3D7 strain, counter-screen for P. falciparum growth inhibition project (AID 2304);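 further: 0% = vehicle and 100% = reference inhibitor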
Settings: P. falciparum 3D7 crude extract, LDH APAD/NBT absorbance; at 2 µM; stronger effect = higher value
Dear colleague, please return just the value in %, with no unit written.

Ask: Bench note: what inhibition did CCCCc1ccc2nc(NC(=O)OC)[nH]c2c1 show?
Reply: -3

Ask: Bench note: what inhibition did CCCCCCCC/C=C\CCCCCCCC(=O)NCc1ccc(O)c(OC)c1 show?
Reply: -7

Ask: Bench note: what inhibition did CN(Cc1cnc2nc(N)nc(N)c2n1)c1ccc(C(=O)N[C@@H](CCC(=O)O)C(=O)O)cc1 show?
Reply: 1

Ask: Bench note: what inhibition did CCN(CC)Cc1cc(Nc2ccnc3cc(Cl)ccc23)ccc1O show?
Reply: 3

Ask: Bench note: what inhibition did O=C(Nc1cccc(C2=NCCN2)c1)Nc1cccc(C2=NCCN2)c1 show?
Reply: 7

* * *

For each entry below, report its inhibition value.
System name: Single-stranded DNA-binding protein (Escherichia coli (strain K12))
Experiment summary: SSB-ssDNA binding inhibitors – biochemical, fluorescence polarization, NIH Clinical Collection, counter-screen for HCV NS3 helicase inhibitor project (AID 743271)
Settings: E. coli SSB-DNA binding, stronger effect = higher value, concentration not given here
Dear colleague, please return just the value in %, with no unit written.

Ask: Bench note: what inhibition did CC(=O)NS(=O)(=O)c1ccc(N)cc1 show?
Reply: -5.05

Ask: Bench note: what inhibition did CC(C)(C)NC(=O)[C@@H]1CN(Cc2cccnc2)CCN1C[C@@H](O)C[C@@H](Cc1ccccc1)C(=O)N[C@H]1c2ccccc2C[C@H]1O show?
Reply: 1.44

Ask: Bench note: what inhibition did COc1cc(-c2ccc(=O)[nH]n2)ccc1OC(F)F show?
Reply: -0.87

Ask: Bench note: what inhibition did Cc1nc2n(c(=O)c1CCN1CCC(c3noc4cc(F)ccc34)CC1)CCCC2 show?
Reply: 2.21

Ask: Bench note: what inhibition did COc1ccc2nc(S(=O)Cc3ncc(C)c(OC)c3C)[nH]c2c1 (stereo not drawn) show?
Reply: -3.54

Ask: Bench note: what inhibition did CC(C(=O)O)c1ccc(CC2CCCC2=O)cc1 (stereo not drawn) show?
Reply: 4.52

Ask: Bench note: what inhibition did CCOC(=O)C1=C(C)NC(C)=C(C(=O)OCC)C1c1ccccc1/C=C/C(=O)OC(C)(C)C show?
Reply: 3.54

Ask: Bench note: what inhibition did Cc1ccsc1C(=CCCN1CCC[C@@H](C(=O)O)C1)c1sccc1C show?
Reply: 3.75

Ask: Bench note: what inhibition did CCC1=C(C)CN(C(=O)NCCc2ccc(S(=O)(=O)NC(=O)NC3CCC(C)CC3)cc2)C1=O (stereo not drawn) show?
Reply: 0.39

Ask: Bench note: what inhibition did CN(C)CC[C@@H](c1ccc(Cl)cc1)c1ccccn1 show?
Reply: -2.76

Ask: Bench note: what inhibition did OCc1cc(C(O)CNCCCCCCOCCCCc2ccccc2)ccc1O (stereo not drawn) show?
Reply: -2.76

Ask: Bench note: what inhibition did CN1CCC(=C2c3ccccc3CCc3sccc32)CC1 show?
Reply: -0.87

Ask: Bench note: what inhibition did CCN1CCC[C@H]1CNC(=O)c1cc(S(N)(=O)=O)ccc1OC show?
Reply: 6.06

Ask: Bench note: what inhibition did CCN(CC)CC1CCCCN1CC(=O)N1c2ccccc2C(=O)Nc2cccnc21 (stereo not drawn) show?
Reply: -2.41

Ask: Bench note: what inhibition did COc1ccc(C(=O)NCc2ccc(OCCN(C)C)cc2)cc1OC show?
Reply: 2.98

Ask: Bench note: what inhibition did COC1=C(OC)C(=O)C(CCCCCCCCCCO)=C(C)C1=O show?
Reply: 2.98

Ask: Bench note: what inhibition did Nc1nnc(-c2cccc(Cl)c2Cl)c(N)n1 show?
Reply: -1.64

Ask: Bench note: what inhibition did O=C(O)/C=C/c1ccc(Cn2ccnc2)cc1 show?
Reply: -3.95

Ask: Bench note: what inhibition did CNNCc1ccc(C(=O)NC(C)C)cc1 show?
Reply: -0.1

Ask: Bench note: what inhibition did C[C@H]1COc2c(C3(N)CC3)c(F)cc3c(=O)c(C(=O)O)cn1c23 show?
Reply: -0.1

Ask: Bench note: what inhibition did COC(=O)C1=C(C)NC(C)=C(C(=O)OC(C)C)C1c1cccc2nonc12 (stereo not drawn) show?
Reply: 4.52

Ask: Bench note: what inhibition did c1cnc(N2CCN(Cc3ccc4c(c3)OCO4)CC2)nc1 show?
Reply: -0.87

Ask: Bench note: what inhibition did Cc1[nH]cnc1CN1CCc2c(c3ccccc3n2C)C1=O show?
Reply: -4.72
